# Test system: 143B
# PROTOCOL_SUMMARY: In vitro cell cytotoxicity against 143B-LTK cell lines expressed in HSV-1 TK
# Type: functional
# EXPERIMENTAL_PARAMETERS: Homo sapiens
The label criterion met is reserved for CC50 strictly under 400 µM; criterion not met covers values equal to or above it.

Q) Could you please tell me whether CC50 recorded for O=c1[nH]c(=O)n([C@H]2C[C@H](O)[C@@H](CO[N+](=O)[O-])O2)cc1I is less than 400 µM?
A) criterion met

Q) Could you please tell me whether CC50 recorded for O=c1ccn([C@H]2C[C@H](O[N+](=O)[O-])[C@@H](CO)O2)c(=O)[nH]1 is less than 400 µM?
A) criterion not met

Q) Could you please tell me whether CC50 recorded for O=c1[nH]c(=O)n([C@H]2C[C@H](O[N+](=O)[O-])[C@@H](CO)O2)cc1F is less than 400 µM?
A) criterion met

---

# System: 143B
# PROTOCOL_SUMMARY: In vitro cell cytotoxicity against 143B-LTK cell lines expressed in HSV-1 TK
# Assay type: functional
# EXPERIMENTAL_PARAMETERS: Homo sapiens
VALUE_KIND: log10 of CC50 (log10 of the value in µM)
Field: value | Transform: log10 | Quantity: CC50 | Unit: µM

• Nc1ccn([C@H]2C[C@H](O[N+](=O)[O-])[C@@H](CO)O2)c(=O)n1 = 2.30
• Cc1cn([C@H]2C[C@H](O[N+](=O)[O-])[C@@H](CO)O2)c(=O)nc1N = 3.00
• O=c1[nH]c(=O)n([C@H]2C[C@H](O)[C@@H](CO)O2)cc1I [IDOXURIDINE] = 3.87
• O=[N+]([O-])O[C@H]1CO[C@H]2[C@@H]1OC[C@H]2O[N+](=O)[O-] [ISOSORBIDE DINITRATE] = 2.85
• O=c1[nH]c(=O)n([C@H]2C[C@H](O[N+](=O)[O-])[C@@H](CO)O2)cc1I = 2.61

The recorded log10 of CC50 for O=c1[nH]c(=O)n([C@H]2C[C@H](O)[C@@H](CO)O2)cc1F [FLOXURIDINE] is 2.00

The recorded log10 of CC50 for Nc1nc(=O)n([C@H]2C[C@H](O[N+](=O)[O-])[C@@H](CO)O2)cc1I is 2.30
